The entries below are paired with their reported MFI.
# MEASUREMENT TARGET: DLL3 endogenously expressed on NCI-H82 cells (UniProt Q9NYJ7)
# Sequence (Q9NYJ7 27-618): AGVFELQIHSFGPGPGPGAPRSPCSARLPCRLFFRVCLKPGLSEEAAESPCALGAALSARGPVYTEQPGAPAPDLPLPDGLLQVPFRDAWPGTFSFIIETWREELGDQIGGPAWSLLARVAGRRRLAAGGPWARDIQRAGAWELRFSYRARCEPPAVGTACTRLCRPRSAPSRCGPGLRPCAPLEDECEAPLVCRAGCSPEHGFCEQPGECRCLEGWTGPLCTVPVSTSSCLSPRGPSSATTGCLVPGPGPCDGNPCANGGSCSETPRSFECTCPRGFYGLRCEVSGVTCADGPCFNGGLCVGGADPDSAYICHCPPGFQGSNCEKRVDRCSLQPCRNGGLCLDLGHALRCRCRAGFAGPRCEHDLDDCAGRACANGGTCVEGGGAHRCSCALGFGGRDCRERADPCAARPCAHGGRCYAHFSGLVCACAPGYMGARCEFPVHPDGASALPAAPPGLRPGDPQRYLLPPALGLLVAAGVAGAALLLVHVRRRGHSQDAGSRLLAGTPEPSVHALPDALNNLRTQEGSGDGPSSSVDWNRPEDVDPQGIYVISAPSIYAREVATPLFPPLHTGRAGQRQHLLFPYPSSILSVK
# EXPERIMENT DESCRIPTION: FACS on NCI-H82 cells; antibody 100 nM
RESULT TYPE: MFI

* mab014 scFv-hFc (Fc fusion, part only; not given: Linker and human IgG1 Fc, not shown: a dimerising Fc or GST) chain, part: DIQMTQSSSSFSVSLGDRVTITCKASEDIYNRLAWYQQKPGNTPRLLISGATSLETGVPSRFSGSGSGKDFTLSITSLQTEDVATYYCQQYWSLPWTFGGGTKLEIKEVQLHQSGPELVKPGTSVKISCKASGYTFTDYYMNWVKQSHGKSLEWIGDINPNHGDTGYNQKFTGKATLTVDKSSSTAYMELRSLTSEDSAVYYCARNFFYYGTTYGWYFDVWGTGTTVTVSS | 1190
* Hab014VL1VH2-hFc (scFv, part only; not given: VL-VH linker and human IgG1 Fc, V domains shown, not shown: another chain or arm of the molecule; a dimerising Fc or GST; small tags and cut ends) VL: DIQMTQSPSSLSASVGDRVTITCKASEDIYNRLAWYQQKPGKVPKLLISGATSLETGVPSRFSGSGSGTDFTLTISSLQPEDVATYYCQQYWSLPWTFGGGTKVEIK VH: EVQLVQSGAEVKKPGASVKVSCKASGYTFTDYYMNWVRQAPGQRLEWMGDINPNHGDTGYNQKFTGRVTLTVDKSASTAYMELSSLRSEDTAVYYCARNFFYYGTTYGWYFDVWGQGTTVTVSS | 1100

Origin of values: patent EP4786492A1
